Target: T1, human CX3CR1 V249I (human, UniProt P49238 1-355)
T1 construct: Transiently transfected in HEK293T cells (pcDNA3.1); also called huCX3CR1 variant V249I (Rs3732379); printed V2491 in the text
T1 sequence: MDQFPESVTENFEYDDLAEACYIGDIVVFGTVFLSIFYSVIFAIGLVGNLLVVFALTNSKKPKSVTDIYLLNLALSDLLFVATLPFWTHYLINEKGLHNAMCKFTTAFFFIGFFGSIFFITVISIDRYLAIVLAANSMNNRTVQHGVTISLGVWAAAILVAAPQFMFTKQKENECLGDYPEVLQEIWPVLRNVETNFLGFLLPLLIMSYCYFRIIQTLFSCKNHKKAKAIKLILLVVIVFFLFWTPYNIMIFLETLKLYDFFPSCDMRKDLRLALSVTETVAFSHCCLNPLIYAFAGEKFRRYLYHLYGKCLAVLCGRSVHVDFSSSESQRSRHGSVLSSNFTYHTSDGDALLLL
Assay: flow cytometry on transiently transfected HEK293T cells, human CX3CR1 V249I
observable: pEC50
Please note pEC50 is a logarithmic value: minus log10 of concentration in mol/L. Answer with that number alone.

Consider the reported pEC50 for these binders:
A041600035 (VHH, Trivalent ISVD construct (two anti-CX3CR1 ISVDs, one anti-albumin ISVD), C-terminal alanine included in the entry; also called 54A12_SO (E1D)-9GS-54A12_SO-9GS-ALB23002-A) DVQLVESGGGSVQPGGSLRLSCAASGSIFSSTAMAWYRQAPGKQRDLVAVISTVGITKYADSVKGRFTISRDNAKNTVYLQMNSLRPEDTALYYCTSDARRGWDTRYWGQGTLVTVSSGGGGSGGGSEVQLVESGGGSVQPGGSLRLSCAASGSIFSSTAMAWYRQAPGKQRDLVAVISTVGITKYADSVKGRFTISRDNAKNTVYLQMNSLRPEDTALYYCTSDARRGWDTRYWGQGTLVTVSSGGGGSGGGSEVQLVESGGGVVQPGGSLRLSCAASGFTFRSFGMSWVRQAPGKGPEWVSSISGSGSDTLYADSVKGRFTISRDNSKNTLYLQMNSLRPEDTALYYCTIGGSLSRSSQGTLVTVSSA : 9.60
A041600041 (VHH, Trivalent ISVD construct (two anti-CX3CR1 ISVDs, one anti-albumin ISVD), C-terminal alanine included in the entry; also called 54A12_SO (E1D)-9GS-66B02_SO-9GS-ALB23002-A) DVQLVESGGGSVQPGGSLRLSCAASGSIFSSTAMAWYRQAPGKQRDLVAVISTVGITKYADSVKGRFTISRDNAKNTVYLQMNSLRPEDTALYYCTSDARRGWDTRYWGQGTLVTVSSGGGGSGGGSEVQLVESGGGSVQPGGSLRLSCAASGSIFSSTAMAWYRQAPGKRRDLVAAINTVGVTKYADSVKGRFTISRDNAKNTVYLQMNSLRPEDTALYYCTSDPRRGWDTRYWGQGTLVTVSSGGGGSGGGSEVQLVESGGGVVQPGGSLRLSCAASGFTFRSFGMSWVRQAPGKGPEWVSSISGSGSDTLYADSVKGRFTISRDNSKNTLYLQMNSLRPEDTALYYCTIGGSLSRSSQGTLVTVSSA : 10.05
A041600034 (VHH, Trivalent ISVD construct; also called 54A12_SO (E1D)-9GS-ALB23002-9GS-66B02_SO-A) DVQLVESGGGSVQPGGSLRLSCAASGSIFSSTAMAWYRQAPGKQRDLVAVISTVGITKYADSVKGRFTISRDNAKNTVYLQMNSLRPEDTALYYCTSDARRGWDTRYWGQGTLVTVSSGGGGSGGGSEVQLVESGGGVVQPGGSLRLSCAASGFTFRSFGMSWVRQAPGKGPEWVSSISGSGSDTLYADSVKGRFTISRDNSKNTLYLQMNSLRPEDTALYYCTIGGSLSRSSQGTLVTVSSGGGGSGGGSEVQLVESGGGSVQPGGSLRLSCAASGSIFSSTAMAWYRQAPGKRRDLVAAINTVGVTKYADSVKGRFTISRDNAKNTVYLQMNSLRPEDTALYYCTSDPRRGWDTRYWGQGTLVTVSSA : 10.35

Okay, next one:
q: Dear colleague, I am looking for the recorded pEC50 of the following binder: A041600085 (VHH, also called 307-9GS-ALB23002-9GS-307 (D1E)-A) DVQLVESGGGLVQPGGSLRLSCAASGSIFSSTAMAWYRQAPGKRRDLVAAISTVGVTKYADSVKGRFTISRDNSKNTVYLQMNSLRPEDTAVYYCTSDPRRGWDTRYWGQGTLVTVSSGGGGSGGGSEVQLVESGGGVVQPGGSLRLSCAASGFTFRSFGMSWVRQAPGKGPEWVSSISGSGSDTLYADSVKGRFTISRDNSKNTLYLQMNSLRPEDTALYYCTIGGSLSRSSQGTLVTVSSGGGGSGGGSEVQLVESGGGLVQPGGSLRLSCAASGSIFSSTAMAWYRQAPGKRRDLVAAISTVGVTKYADSVKGRFTISRDNSKNTVYLQMNSLRPEDTAVYYCTSDPRRGWDTRYWGQGTLVTVSSA
a: 10.24
